Target Of Assay: Proto-oncogene tyrosine-protein kinase receptor Ret (Homo sapiens)
Sequence (P07949 whole entry): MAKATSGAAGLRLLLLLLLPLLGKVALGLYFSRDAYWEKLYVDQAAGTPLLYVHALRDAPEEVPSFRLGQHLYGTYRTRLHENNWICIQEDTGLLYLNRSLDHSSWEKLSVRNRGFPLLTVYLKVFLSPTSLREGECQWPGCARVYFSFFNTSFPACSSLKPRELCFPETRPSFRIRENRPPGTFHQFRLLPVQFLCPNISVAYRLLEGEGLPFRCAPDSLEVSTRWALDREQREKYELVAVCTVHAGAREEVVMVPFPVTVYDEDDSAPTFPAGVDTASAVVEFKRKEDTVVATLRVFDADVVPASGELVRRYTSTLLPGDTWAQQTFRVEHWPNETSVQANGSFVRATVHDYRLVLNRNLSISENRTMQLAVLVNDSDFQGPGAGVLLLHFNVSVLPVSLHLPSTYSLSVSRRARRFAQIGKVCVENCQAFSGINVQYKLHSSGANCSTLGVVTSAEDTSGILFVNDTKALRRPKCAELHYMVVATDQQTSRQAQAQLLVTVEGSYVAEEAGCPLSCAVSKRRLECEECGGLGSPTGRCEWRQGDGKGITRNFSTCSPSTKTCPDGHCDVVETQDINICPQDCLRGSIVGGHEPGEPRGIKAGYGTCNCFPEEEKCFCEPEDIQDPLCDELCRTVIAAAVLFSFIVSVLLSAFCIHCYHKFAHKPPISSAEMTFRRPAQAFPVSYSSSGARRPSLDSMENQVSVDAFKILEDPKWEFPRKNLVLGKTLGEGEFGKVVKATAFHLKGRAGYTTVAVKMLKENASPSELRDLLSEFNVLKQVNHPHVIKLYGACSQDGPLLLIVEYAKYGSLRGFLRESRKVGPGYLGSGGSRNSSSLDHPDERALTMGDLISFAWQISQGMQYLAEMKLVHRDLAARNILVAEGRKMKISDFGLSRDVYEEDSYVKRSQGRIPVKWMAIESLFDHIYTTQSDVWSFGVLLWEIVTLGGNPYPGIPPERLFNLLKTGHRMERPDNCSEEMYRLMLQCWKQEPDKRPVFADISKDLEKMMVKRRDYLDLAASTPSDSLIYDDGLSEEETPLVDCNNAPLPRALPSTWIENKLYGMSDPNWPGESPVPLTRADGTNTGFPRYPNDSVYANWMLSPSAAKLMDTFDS
pIC50: −log10 of the molar value.
Reported Endpoint: pIC50

| Compound | Value |
| --- | --- |
| Cn1c2c(c3ccc(Cl)c(Cl)c31)C(C#N)C1(CCNCC1)NC2=O (racemic) | 5.11 |

---

Target Of Assay: Dual specificity tyrosine-phosphorylation-regulated kinase 2 (Homo sapiens)
Assay Name: Binding affinity to DYRK2 assessed as change in thermal denaturation at 10 uM by thermal stability shift assay
Listing of entries alongside the reported ΔTm.
Reported Endpoint: ΔTm

| Molecule | Reported Endpoint | Value |
| --- | --- | --- |
| N#CC1c2c([nH]c3c(Cl)c(Cl)ccc23)C(=O)NC12CCCCC2 (racemic) | ΔTm | 1.4 °C |
| CCC1(CC)NC(=O)c2c(c3ccc(Cl)c(Cl)c3n2C)C1C#N (stereo unspecified) | ΔTm | 0.6 °C |
| Cn1c2c(c3ccccc31)C(C#N)C(C)(C)NC2=O (stereo unspecified) | ΔTm | 0.5 °C |
| Cn1c2c(Cl)c(Cl)ccc2c2cc(N)[nH]c(=O)c21 | ΔTm | 2.4 °C |
| Cn1c2c(c3ccc(Cl)c(Cl)c31)C(C#N)C1(CCCC1)NC2=O (stereo unspecified) | ΔTm | 0.7 °C |
| Cn1c2c(c3ccc(Cl)c(Cl)c31)C(C#N)C1(CCN(C(=O)OC(C)(C)C)CC1)NC2=O (racemic) | ΔTm | 0.3 °C |
| Cn1c2c(c3ccc(Cl)c(Cl)c31)C(C#N)C1(CCOCC1)NC2=O (stereo unspecified) | ΔTm | 1 °C |
| Cn1c2c(c3ccc(Cl)c(Cl)c31)C(CN)C(C)(C)NC2=O (racemic) | ΔTm | 0.2 °C |
| Cn1c2c(c3ccc(Cl)c(Cl)c31)C(C#N)C(C)(C)NC2=O (stereo unspecified) | ΔTm | 2 °C |
| CN1CCC2(CC1)NC(=O)c1c(c3ccc(Cl)c(Cl)c3n1C)C2C#N (racemic) | ΔTm | 1.3 °C |
| CC1(C)NC(=O)c2[nH]c3c(Cl)c(Cl)ccc3c2C1C#N (stereo unspecified) | ΔTm | 1.3 °C |
| CCN1CCC2(CC1)NC(=O)c1c(c3ccc(Cl)c(Cl)c3n1C)C2C#N (racemic) | ΔTm | 0.9 °C |
| Cn1c2c(Cl)c(Cl)ccc2c2cc[nH]c(=O)c21 | ΔTm | 4.1 °C |
| CC(=O)NCC1c2c(n(C)c3c(Cl)c(Cl)ccc23)C(=O)NC1(C)C (racemic) | ΔTm | 0.9 °C |
| Cn1c2c(Cl)c(Cl)ccc2c2cn[nH]c(=O)c21 | ΔTm | 1.6 °C |
| Cn1c2c(c3ccc(Cl)c(Cl)c31)C(C#N)C1(CCNCC1)NC2=O (racemic) | ΔTm | 3.6 °C |

---

Target Of Assay: Phosphatidylinositol 4,5-bisphosphate 3-kinase catalytic subunit alpha isoform (Homo sapiens, UniProt P42336)
Sequence (P42336 whole entry, canonical isoform): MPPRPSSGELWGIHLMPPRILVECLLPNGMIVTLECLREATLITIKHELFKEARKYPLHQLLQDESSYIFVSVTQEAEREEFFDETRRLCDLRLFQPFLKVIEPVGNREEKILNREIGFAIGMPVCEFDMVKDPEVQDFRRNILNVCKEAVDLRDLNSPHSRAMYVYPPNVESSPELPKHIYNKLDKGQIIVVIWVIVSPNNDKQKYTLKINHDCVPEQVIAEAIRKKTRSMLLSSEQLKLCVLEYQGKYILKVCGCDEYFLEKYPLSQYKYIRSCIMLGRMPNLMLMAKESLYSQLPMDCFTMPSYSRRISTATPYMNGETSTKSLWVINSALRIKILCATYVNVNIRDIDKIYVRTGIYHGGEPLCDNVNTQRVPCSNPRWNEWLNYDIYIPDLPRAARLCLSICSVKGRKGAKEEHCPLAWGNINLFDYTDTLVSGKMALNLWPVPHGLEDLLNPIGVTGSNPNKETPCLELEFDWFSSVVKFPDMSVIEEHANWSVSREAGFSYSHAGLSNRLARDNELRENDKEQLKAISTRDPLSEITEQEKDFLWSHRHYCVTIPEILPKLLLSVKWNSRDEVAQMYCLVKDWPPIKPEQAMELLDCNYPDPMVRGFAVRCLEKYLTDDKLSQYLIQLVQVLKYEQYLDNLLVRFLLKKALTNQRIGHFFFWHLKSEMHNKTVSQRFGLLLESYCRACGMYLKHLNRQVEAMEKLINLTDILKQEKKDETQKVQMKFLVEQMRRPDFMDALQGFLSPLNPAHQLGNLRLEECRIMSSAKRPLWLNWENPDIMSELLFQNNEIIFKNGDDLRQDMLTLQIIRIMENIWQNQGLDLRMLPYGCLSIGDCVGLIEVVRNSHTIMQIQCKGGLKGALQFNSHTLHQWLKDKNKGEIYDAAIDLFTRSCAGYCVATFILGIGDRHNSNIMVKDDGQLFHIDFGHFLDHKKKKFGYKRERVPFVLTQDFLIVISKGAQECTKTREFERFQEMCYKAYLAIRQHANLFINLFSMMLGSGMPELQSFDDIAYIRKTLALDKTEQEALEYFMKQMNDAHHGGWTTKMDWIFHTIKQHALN
Assay Name: Inhibition of PI3Kalpha using ATP as substrate

| Molecule | IC50 |
| --- | --- |
| Cn1c2c(c3ccc(Cl)c(Cl)c31)C(C#N)C1(CCNCC1)NC2=O (racemic) | > 9.1 µM |

---

Target Of Assay: Serine/threonine-protein kinase pim-3 (Homo sapiens, UniProt Q86V86)
Assay Name: Binding affinity to PIM3 assessed as change in thermal denaturation at 10 uM by thermal stability shift assay
Reported Endpoint: ΔTm (°C)

| Compound | Value |
| --- | --- |
| Cn1c2c(c3ccc(Cl)c(Cl)c31)C(C#N)C1(CCOCC1)NC2=O (configuration not stated) | 4.7 |
| Cn1c2c(Cl)c(Cl)ccc2c2cn[nH]c(=O)c21 | 2.3 |
| CCC1(CC)NC(=O)c2c(c3ccc(Cl)c(Cl)c3n2C)C1C#N (configuration not stated) | 3.4 |
| Cn1c2c(Cl)c(Cl)ccc2c2cc[nH]c(=O)c21 | 3.6 |
| Cn1c2c(c3ccc(Cl)c(Cl)c31)C(CN)C(C)(C)NC2=O (racemic) | 3.7 |
| N#CC1c2c([nH]c3c(Cl)c(Cl)ccc23)C(=O)NC12CCCCC2 (racemic) | 4.9 |
| Cn1c2c(c3ccc(Cl)c(Cl)c31)C(C#N)C1(CCNCC1)NC2=O (racemic) | 9.6 |
| Cn1c2c(c3ccc(Cl)c(Cl)c31)C(C#N)C1(CCCC1)NC2=O (configuration not stated) | 3.8 |
| CC(=O)NCC1c2c(n(C)c3c(Cl)c(Cl)ccc23)C(=O)NC1(C)C (racemic) | 0.7 |
| CCN1CCC2(CC1)NC(=O)c1c(c3ccc(Cl)c(Cl)c3n1C)C2C#N (racemic) | 7.1 |
| Cn1c2c(c3ccccc31)C(C#N)C(C)(C)NC2=O (configuration not stated) | 1.3 |
| Cn1c2c(Cl)c(Cl)ccc2c2cc(N)[nH]c(=O)c21 | 3.6 |
| Cn1c2c(c3ccc(Cl)c(Cl)c31)C(C#N)C(C)(C)NC2=O (configuration not stated) | 6.2 |
| Cn1c2c(c3ccc(Cl)c(Cl)c31)C(C#N)C1(CCN(C(=O)OC(C)(C)C)CC1)NC2=O (racemic) | 0.6 |
| CN1CCC2(CC1)NC(=O)c1c(c3ccc(Cl)c(Cl)c3n1C)C2C#N (racemic) | 7.2 |
| CC1(C)NC(=O)c2[nH]c3c(Cl)c(Cl)ccc3c2C1C#N (configuration not stated) | 4 |
| Cn1c2c(c3ccc(Cl)c(Cl)c31)C(C#N)C1(CCCCC1)NC2=O (racemic) | 4 |

---

Target Of Assay: Serine/threonine-protein kinase PLK4 (Homo sapiens)
Assay Name: Binding affinity to PLK4 assessed as change in thermal denaturation at 10 uM by thermal stability shift assay

| Molecule | Target Of Assay | ΔTm (°C) |
| --- | --- | --- |
| Cn1c2c(c3ccc(Cl)c(Cl)c31)C(C#N)C1(CCOCC1)NC2=O (stereo unspecified) | Serine/threonine-protein kinase PLK4 (Homo sapiens) | 2.7 |
| CC(=O)NCC1c2c(n(C)c3c(Cl)c(Cl)ccc23)C(=O)NC1(C)C (racemic) | Serine/threonine-protein kinase PLK4 (Homo sapiens) | 1 |
| Cn1c2c(Cl)c(Cl)ccc2c2cc(N)[nH]c(=O)c21 | Serine/threonine-protein kinase PLK4 (Homo sapiens) | 2 |
| Cn1c2c(Cl)c(Cl)ccc2c2cc[nH]c(=O)c21 | Serine/threonine-protein kinase PLK4 (Homo sapiens) | 1.7 |
| Cn1c2c(c3ccccc31)C(C#N)C(C)(C)NC2=O (stereo unspecified) | Serine/threonine-protein kinase PLK4 (Homo sapiens) | 0.9 |
| Cn1c2c(Cl)c(Cl)ccc2c2cn[nH]c(=O)c21 | Serine/threonine-protein kinase PLK4 (Homo sapiens) | 1.5 |
| CN1CCC2(CC1)NC(=O)c1c(c3ccc(Cl)c(Cl)c3n1C)C2C#N (racemic) | Serine/threonine-protein kinase PLK4 (Homo sapiens) | 3.3 |
| Cn1c2c(c3ccc(Cl)c(Cl)c31)C(C#N)C(C)(C)NC2=O (stereo unspecified) | Serine/threonine-protein kinase PLK4 (Homo sapiens) | 5.1 |
| Cn1c2c(c3ccc(Cl)c(Cl)c31)C(C#N)C1(CCN(C(=O)OC(C)(C)C)CC1)NC2=O (racemic) | Serine/threonine-protein kinase PLK4 (Homo sapiens) | 0.1 |
| N#CC1c2c([nH]c3c(Cl)c(Cl)ccc23)C(=O)NC12CCCCC2 (racemic) | Serine/threonine-protein kinase PLK4 (Homo sapiens) | 1.3 |
| CCC1(CC)NC(=O)c2c(c3ccc(Cl)c(Cl)c3n2C)C1C#N (stereo unspecified) | Serine/threonine-protein kinase PLK4 (Homo sapiens) | 4.6 |
| Cn1c2c(c3ccc(Cl)c(Cl)c31)C(C#N)C1(CCCC1)NC2=O (stereo unspecified) | Serine/threonine-protein kinase PLK4 (Homo sapiens) | 2.5 |
| CC1(C)NC(=O)c2[nH]c3c(Cl)c(Cl)ccc3c2C1C#N (stereo unspecified) | Serine/threonine-protein kinase PLK4 (Homo sapiens) | 1.7 |
| Cn1c2c(c3ccc(Cl)c(Cl)c31)C(CN)C(C)(C)NC2=O (racemic) | Serine/threonine-protein kinase PLK4 (Homo sapiens) | 2.7 |
| CCN1CCC2(CC1)NC(=O)c1c(c3ccc(Cl)c(Cl)c3n1C)C2C#N (racemic) | Serine/threonine-protein kinase PLK4 (Homo sapiens) | 3.2 |
| Cn1c2c(c3ccc(Cl)c(Cl)c31)C(C#N)C1(CCNCC1)NC2=O (racemic) | Serine/threonine-protein kinase PLK4 (Homo sapiens) | 6.8 |

---

Target Of Assay: Phosphatidylinositol 4-kinase beta (Homo sapiens)
Sequence (Q9UBF8 whole entry): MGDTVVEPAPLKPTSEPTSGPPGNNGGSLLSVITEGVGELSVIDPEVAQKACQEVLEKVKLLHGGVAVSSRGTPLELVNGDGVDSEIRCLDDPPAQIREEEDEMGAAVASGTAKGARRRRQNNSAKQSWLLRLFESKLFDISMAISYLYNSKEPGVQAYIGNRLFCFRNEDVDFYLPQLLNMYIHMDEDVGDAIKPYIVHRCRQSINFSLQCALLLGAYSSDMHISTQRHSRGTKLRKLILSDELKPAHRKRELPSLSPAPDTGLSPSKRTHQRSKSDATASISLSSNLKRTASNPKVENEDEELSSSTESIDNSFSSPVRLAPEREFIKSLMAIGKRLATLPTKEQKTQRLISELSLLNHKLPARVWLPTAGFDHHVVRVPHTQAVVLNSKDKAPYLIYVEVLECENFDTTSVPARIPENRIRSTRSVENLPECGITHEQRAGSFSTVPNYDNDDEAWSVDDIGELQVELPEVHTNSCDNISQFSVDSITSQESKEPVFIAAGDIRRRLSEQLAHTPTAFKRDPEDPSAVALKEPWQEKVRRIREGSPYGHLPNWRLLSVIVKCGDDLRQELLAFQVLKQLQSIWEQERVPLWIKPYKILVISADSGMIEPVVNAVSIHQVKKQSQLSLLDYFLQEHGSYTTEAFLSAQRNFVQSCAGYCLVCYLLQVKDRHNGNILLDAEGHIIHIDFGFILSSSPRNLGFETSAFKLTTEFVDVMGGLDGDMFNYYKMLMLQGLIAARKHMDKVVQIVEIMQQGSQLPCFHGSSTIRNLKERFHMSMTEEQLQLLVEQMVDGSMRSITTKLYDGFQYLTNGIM
pIC50: −log10 of the molar value.

| Compound | Target Of Assay | pIC50 |
| --- | --- | --- |
| Cn1c2c(c3ccc(Cl)c(Cl)c31)C(C#N)C1(CCNCC1)NC2=O (racemic) | Phosphatidylinositol 4-kinase beta (Homo sapiens) | 5.60 |

---

Target Of Assay: Ribosomal protein S6 kinase alpha-1 (Homo sapiens) (UniProt Q15418)
Sequence (Q15418 whole entry, looked up): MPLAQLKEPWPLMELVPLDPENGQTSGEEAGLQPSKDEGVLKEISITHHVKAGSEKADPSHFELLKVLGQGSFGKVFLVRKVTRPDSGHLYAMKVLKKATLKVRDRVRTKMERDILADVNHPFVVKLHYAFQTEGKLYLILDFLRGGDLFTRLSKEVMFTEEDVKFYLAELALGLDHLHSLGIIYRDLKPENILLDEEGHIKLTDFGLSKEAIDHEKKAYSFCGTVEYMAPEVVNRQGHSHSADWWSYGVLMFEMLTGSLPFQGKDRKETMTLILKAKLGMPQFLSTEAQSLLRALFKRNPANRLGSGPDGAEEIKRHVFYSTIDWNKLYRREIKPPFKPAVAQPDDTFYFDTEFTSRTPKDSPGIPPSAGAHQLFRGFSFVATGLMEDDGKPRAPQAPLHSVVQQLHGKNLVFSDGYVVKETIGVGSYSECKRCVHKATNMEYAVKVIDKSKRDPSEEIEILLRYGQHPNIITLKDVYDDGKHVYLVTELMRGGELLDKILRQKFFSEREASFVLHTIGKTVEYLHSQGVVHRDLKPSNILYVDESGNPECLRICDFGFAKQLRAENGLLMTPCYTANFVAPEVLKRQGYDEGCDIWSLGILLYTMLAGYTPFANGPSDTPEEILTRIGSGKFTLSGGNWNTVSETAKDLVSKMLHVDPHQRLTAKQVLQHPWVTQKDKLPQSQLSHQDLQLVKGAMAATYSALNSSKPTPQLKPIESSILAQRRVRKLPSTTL
Assay Name: Binding affinity to RSK1 assessed as change in thermal denaturation at 10 uM by thermal stability shift assay
Listing of entries alongside the reported ΔTm.
Reported Endpoint: ΔTm

| Molecule | Target Of Assay | Value |
| --- | --- | --- |
| CC(=O)NCC1c2c(n(C)c3c(Cl)c(Cl)ccc23)C(=O)NC1(C)C (racemic) | Ribosomal protein S6 kinase alpha-1 (Homo sapiens) (UniProt Q15418) | 0.7 °C |
| Cn1c2c(c3ccc(Cl)c(Cl)c31)C(C#N)C1(CCNCC1)NC2=O (racemic) | Ribosomal protein S6 kinase alpha-1 (Homo sapiens) (UniProt Q15418) | 1 °C |
| Cn1c2c(Cl)c(Cl)ccc2c2cc(N)[nH]c(=O)c21 | Ribosomal protein S6 kinase alpha-1 (Homo sapiens) (UniProt Q15418) | 3.1 °C |
| CCN1CCC2(CC1)NC(=O)c1c(c3ccc(Cl)c(Cl)c3n1C)C2C#N (racemic) | Ribosomal protein S6 kinase alpha-1 (Homo sapiens) (UniProt Q15418) | 0 °C |
| Cn1c2c(c3ccc(Cl)c(Cl)c31)C(C#N)C1(CCCC1)NC2=O (stereo unspecified) | Ribosomal protein S6 kinase alpha-1 (Homo sapiens) (UniProt Q15418) | 0.5 °C |
| Cn1c2c(c3ccccc31)C(C#N)C(C)(C)NC2=O (stereo unspecified) | Ribosomal protein S6 kinase alpha-1 (Homo sapiens) (UniProt Q15418) | 0.4 °C |

Origin of measurements: ChEMBL document CHEMBL1944596
